System: HSV-1
Assay: HSV Antiviral (ELISA) assay
Assay type: cell-based
Details: HSV-1 in Vero cells
Below is a list of entries, each paired with its recorded IC50 (ug/ml) HSV value.
Measurement Name: IC50 (ug/ml) HSV

[[record]]
compound = "Nc1c(Br)cc(NC(=S)Nc2ccc(NC(=O)c3csnn3)cc2)cc1Br"
target_under_test = "HSV-1"
result = "10 µg/mL"

[[record]]
compound = "O=C(Nc1ccc(NC(=S)NCc2cccc(C(F)(F)F)c2)cc1)c1csnn1"
target_under_test = "HSV-1"
result = ">10 µg/mL"

[[record]]
compound = "O=C(Nc1ccc(NC(=S)NCc2ccc(Cl)c(Cl)c2)cc1)c1csnn1"
target_under_test = "HSV-1"
result = "9 µg/mL"

[[record]]
compound = "COc1cc(OC)c(NC(=S)Nc2ccc(NC(=O)c3cc(Br)co3)cc2)cc1Cl"
target_under_test = "HSV-1"
result = "3 µg/mL"

[[record]]
compound = "O=C(Nc1ccc(NC(=S)Nc2ccccc2F)cc1)c1csnn1"
target_under_test = "HSV-1"
result = ">10 µg/mL"

[[record]]
compound = "O=C(Nc1ccc(NC(=S)Nc2ccc(Cl)c(C(F)(F)F)c2)cc1)c1cscn1"
target_under_test = "HSV-1"
result = ">10 µg/mL"

[[record]]
compound = "COc1cc(NC(=S)Nc2ccc(NC(=O)c3csnn3)cc2)cc(OC)c1"
target_under_test = "HSV-1"
result = ">10 µg/mL"

[[record]]
compound = "O=C(Nc1ccc(NC(=S)Nc2cccc(CO)c2)cc1)c1ccco1"
target_under_test = "HSV-1"
result = ">10 µg/mL"

[[record]]
compound = "CC(CCc1ccccc1)NC(=S)Nc1ccc(NC(=O)c2csnn2)cc1 (stereo not drawn)"
target_under_test = "HSV-1"
result = ">10 µg/mL"


* * *

System: HSV-1
Assay: HSV Antiviral (ELISA) assay
Assay type: cell-based
Details: HSV-1 in Vero cells
Measurement Name: IC50 (ug/ml) HSV

[[record]]
compound = "NNC(=O)c1cccc(NC(=S)Nc2ccc(NC(=O)c3csnn3)cc2)c1 [Example 449]"
target_under_test = "HSV-1"
result = ">10 µg/mL"

[[record]]
compound = "O=C(Nc1ccc(NC(=S)NCCc2ccc(F)cc2)cc1)c1csnn1 [Example 555]"
target_under_test = "HSV-1"
result = ">10 µg/mL"

[[record]]
compound = "Nc1ccc(NC(=S)Nc2ccc(NC(=O)c3ccco3)cc2)cc1Cl [Example 421]"
target_under_test = "HSV-1"
result = "8 µg/mL"

[[record]]
compound = "COc1cc(OC)c(NC(=S)Nc2ccc(NC(=O)c3snnc3-c3ccccc3)cc2)cc1Cl [Example 264]"
target_under_test = "HSV-1"
result = ">10 µg/mL"

[[record]]
compound = "O=C(Nc1ccc(NC(=S)Nc2ccc3scnc3c2)cc1)c1ccco1 [Example 482]"
target_under_test = "HSV-1"
result = "9 µg/mL"

[[record]]
compound = "O=C(Nc1ccc(NC(=S)NCCSc2cccc(Br)c2)cc1)c1ccco1 [Example 679]"
target_under_test = "HSV-1"
result = "10 µg/mL"

[[record]]
compound = "O=C(CN1CCSCC1)Nc1ccc(NC(=S)Nc2ccc(NC(=O)c3ccco3)cc2)cc1Cl [Example 406]"
target_under_test = "HSV-1"
result = ">10 µg/mL"

[[record]]
compound = "CN(C)c1c(Cl)cccc1NC(=S)Nc1ccc(NC(=O)c2ccco2)cc1 [Example 505]"
target_under_test = "HSV-1"
result = "10 µg/mL"

[[record]]
compound = "CN(C)c1ccc(Cl)cc1NC(=S)Nc1ccc(NC(=O)c2csnn2)cc1 [Example 500]"
target_under_test = "HSV-1"
result = ">10 µg/mL"

[[record]]
compound = "Nc1nccc(-c2ccc(NC(=S)Nc3ccc(NC(=O)c4csnn4)cc3)cc2Cl)n1 [Example 501]"
target_under_test = "HSV-1"
result = ">10 µg/mL"

[[record]]
compound = "COc1ccc(CCNC(=S)Nc2ccc(NC(=O)c3csnn3)cc2)cc1Br [Example 681]"
target_under_test = "HSV-1"
result = ">10 µg/mL"

[[record]]
compound = "O=C(Nc1ccc(NC(=S)NCCc2cc(C(F)(F)F)cc(C(F)(F)F)c2)cc1)c1csnn1 [Example 599]"
target_under_test = "HSV-1"
result = ">10 µg/mL"

[[record]]
compound = "CC(NC(=S)Nc1ccc(NC(=O)c2csnn2)cc1)c1ccc(Br)cc1 (centres unmarked) [Example 647]"
target_under_test = "HSV-1"
result = ">10 µg/mL"

[[record]]
compound = "Nc1c(Cl)cc(C(F)(F)F)cc1NC(=S)Nc1ccc(NC(=O)c2ccco2)cc1 [Example 530]"
target_under_test = "HSV-1"
result = "5 µg/mL"

[[record]]
compound = "O=C(Nc1ccc(NC(=S)NCCc2cccc(C(F)(F)F)c2F)cc1)c1csnn1 [Example 766]"
target_under_test = "HSV-1"
result = ">10 µg/mL"

[[record]]
compound = "COC(=O)c1cc(NC(=S)Nc2ccc(NC(=O)c3csnn3)cc2)cc(C(=O)OC)c1 [Example 485]"
target_under_test = "HSV-1"
result = ">10 µg/mL"

[[record]]
compound = "COc1ccccc1CCNC(=S)Nc1ccc(NC(=O)c2csnn2)cc1 [Example 651]"
target_under_test = "HSV-1"
result = ">10 µg/mL"


Values compiled from patent US6426355B1.
